Biological target: human MC3R (human, UniProt P41968 1-323)
Sequence (P41968 whole entry): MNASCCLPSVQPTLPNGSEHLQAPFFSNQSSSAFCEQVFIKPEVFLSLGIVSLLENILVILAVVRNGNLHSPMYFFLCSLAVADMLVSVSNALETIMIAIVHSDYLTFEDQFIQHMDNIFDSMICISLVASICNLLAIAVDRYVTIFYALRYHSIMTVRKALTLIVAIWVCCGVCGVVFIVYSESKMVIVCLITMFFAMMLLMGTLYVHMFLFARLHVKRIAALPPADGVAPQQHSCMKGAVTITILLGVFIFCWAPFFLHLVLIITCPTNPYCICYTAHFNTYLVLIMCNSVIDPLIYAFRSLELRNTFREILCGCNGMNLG
Experiment: cell-based or functional assay
Non-standard residues stand in square brackets, D forms with d. Nle = CCCC[C@H](N)C(=O)O
EXPERIMENTAL_READOUT: MC3R selectivity (relative to MC4R)

[
  {
    "BINDER": "Ac-[Nle][dA]HFR[dW]FRFG-OH (SMILES CCCC[C@H](NC(C)=O)C(=O)N[C@H](C)C(=O)N[C@@H](Cc1c[nH]cn1)C(=O)N[C@@H](Cc1ccccc1)C(=O)N[C@@H](CCCNC(=N)N)C(=O)N[C@H](Cc1c[nH]c2ccccc12)C(=O)N[C@@H](Cc1ccccc1)C(=O)N[C@@H](CCCNC(=N)N)C(=O)N[C@@H](Cc1ccccc1)C(=O)NCC(=O)O) [CTX-1529]",
    "READING": 82
  },
  {
    "BINDER": "YVXAHFRWDRFG (Nle at 3; D-Ala at 4; Phe(4-I) at 6; D-Trp at 8) [CTX-2122]",
    "READING": 324
  }
]
